The reported numbers originate from patent US20220153839A1.

- Test target: T1, StrepII-tagged human ROR1 extracellular domain (human, UniProt Q01973 30-406)
- T1 construct: extracellular domain; also called ROR1-strep; strep-tagged human ROR1
- T1 sequence (Q01973 other isoform, or with tags, fused parts or gaps): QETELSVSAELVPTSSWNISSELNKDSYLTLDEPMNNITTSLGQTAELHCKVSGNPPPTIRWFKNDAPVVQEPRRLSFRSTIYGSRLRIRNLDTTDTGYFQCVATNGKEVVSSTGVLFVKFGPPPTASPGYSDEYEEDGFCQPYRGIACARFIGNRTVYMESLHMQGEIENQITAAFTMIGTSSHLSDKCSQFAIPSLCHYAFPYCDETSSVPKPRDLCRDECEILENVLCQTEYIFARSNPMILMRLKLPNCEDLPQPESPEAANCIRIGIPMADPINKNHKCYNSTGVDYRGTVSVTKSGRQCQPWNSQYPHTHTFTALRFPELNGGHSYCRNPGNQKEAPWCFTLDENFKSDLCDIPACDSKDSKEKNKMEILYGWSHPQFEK
- Protocol text: SPR (Biacore T200); mAb captured by goat anti-human Fcγ IgG on CM5; ROR1-strep as analyte (Example 8)
Endpoint label: kon (M⁻¹ s⁻¹)
Please reply with the bare figure in M⁻¹ s⁻¹ and do not write the unit itself.

Illustrative cases are given below, each with its answer.
HuXBR1-402(26) (mAb296) (antibody, human IgG1, V domains shown, Humanized IgG (human IgG1 constant regions, lambda)) VH: QVQLQESGPGLVKPSETLSLTCTVSGFDISSYYMSWVRQPPGNGLEWIGAIGISGNAYYASWAKSRVTISRDTSKNQFSLKLSSVTAADTAVYYCARDHPTYGMDLWGPGTLVTVSS VL: SYELTQPLSVSVALGQTARITCEGNNIGSKAVHWYQQKPGLAPVLVIYDDDERPSGIPERFSGSNSGNTATLTISRAQAGDEADYYCQVWDSSAYVFGGGTQLTVLG
1.05e+06
HuXBR1-402(3) (mAb288) (antibody, human IgG1, V domains shown, Humanized IgG (human IgG1 constant regions, lambda)) VH: QVQLRESGPGLVKPSETLSLTCTVSGFDISSYYMSWVRQPPGKGLEWIGAIGISGNAYYASWAKSRVTISRDTSKNQFSLKLSSVTAADTAVYYCARDHPTYGMDLWGPGTLVTVSS VL: SYELTQPLSVSVALGQTARITCEGNNIGSKAVHWYQQKPGQAPVLVIYDDDERPSGIPERFSGSNSGNTATLTISRAQAGDEADYYCQVWDSSAYVFGGGTKLTVLG
1.19e+06

// switching to the query binder
// kon lookup, binder = HuXBR1-402(17) (mAb291) (antibody, human IgG1, V domains shown, Humanized IgG (human IgG1 constant regions, lambda)) VH: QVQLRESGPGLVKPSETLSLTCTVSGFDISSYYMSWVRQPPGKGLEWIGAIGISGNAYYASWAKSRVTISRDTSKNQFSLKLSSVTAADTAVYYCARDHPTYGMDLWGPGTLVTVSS VL: SYELTQPPSVSVAPGKTARITCEGNNIGSKAVHWYQQKPGQAPVLVIYDDDERPSGIPERFSGSNSGNTATLTISRVEAGDEADYYCQVWDSSAYVFGGGTKLTVLG , result: 960000
